ASSAY_TARGET: human recombinant MC1R (Homo sapiens)
Sequence (Q01726 whole entry): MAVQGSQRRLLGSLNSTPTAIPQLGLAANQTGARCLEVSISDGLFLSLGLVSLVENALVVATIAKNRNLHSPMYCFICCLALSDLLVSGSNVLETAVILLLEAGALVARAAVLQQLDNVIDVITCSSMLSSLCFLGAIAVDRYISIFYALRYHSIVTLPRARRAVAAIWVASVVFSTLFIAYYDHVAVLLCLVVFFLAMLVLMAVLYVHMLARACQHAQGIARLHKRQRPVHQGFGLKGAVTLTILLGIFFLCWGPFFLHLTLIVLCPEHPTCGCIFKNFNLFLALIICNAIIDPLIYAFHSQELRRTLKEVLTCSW
MEASUREMENT_NOTES: cyclic AMP (cAMP) functional assay, MC1R stable cell line (CHO-K1);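 also: cells with test compound for 60 min at room temperature in buffer containing IBMX, then cAMP quantified by Eu-cAMP tracer and ULight anti-cAMP detection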
MEASUREMENT_PARAMETERS: cAMP functional assay
pIC50: −log10 of the molar value. Positions of bridges follow the written chain, without caps; N, C: chain ends. Non-standard residues stand in square brackets, D forms with d. Residues, ends and D or L forms follow the SMILES beside them. Triazole bridges read from a SMILES are 1,4-linked. *: point of attachment. Benzoyl(3,5-(OH)2) = O=C(c1cc(O)cc(O)c1)*; Lys(N3) = [N-]=[N+]=NCCCC[C@H](N)C(=O)O; dNMeF = CN[C@H](Cc1ccccc1)C(=O)O; Nle = CCCC[C@H](N)C(=O)O; Pra = C#CC[C@H](N)C(=O)O
PROPERTY: pIC50

>  <MOLECULE>
CCCC[C@H](NC(=O)c1cc(O)cc(O)c1)C(=O)N[C@H]1CCCCn2cc(nn2)C[C@@H](C(N)=O)NC(=O)[C@H](Cc2c[nH]c3ccccc23)NC(=O)[C@H](CCCNC(=N)N)NC(=O)[C@@H](Cc2ccccc2)NC(=O)[C@H](Cc2c[nH]cn2)NC1=O [KR-073] ({Benzoyl(3,5-(OH)2)}-[Nle][Lys(N3)]H[dF]RW[Pra]-NH2; triazole 2-7)

>  <pIC50>
11.39

$$$$
>  <MOLECULE>
CCCC[C@H](NC(C)=O)C(=O)N1CCC(=O)NCCN(CC(=O)N[C@@H](Cc2c[nH]c3ccccc23)C(N)=O)C(=O)[C@H](CCCNC(=N)N)NC(=O)[C@@H](Cc2ccccc2)NC(=O)[C@H](Cc2c[nH]cn2)NC(=O)C1

>  <pIC50>
< 7.30

$$$$

As a next step, examine the molecule that follows.
I have this molecule here, CCCC[C@H](NC(C)=O)C(=O)N[C@H]1CCCCn2cc(nn2)C[C@@H](C(N)=O)NC(=O)[C@H](Cc2c[nH]c3ccccc23)NC(=O)[C@H](CCCNC(=N)N)NC(=O)[C@@H](Cc2ccccc2)N(C)C(=O)[C@H](Cc2c[nH]cn2)NC1=O [KR-044] (Ac-[Nle][Lys(N3)]H[dNMeF]RW[Pra]-NH2; triazole 2-7) , and I need its recorded pIC50. < 7.30
